Target: T1, human TNFR2 (Novoprotein, Cat #C830) (human, UniProt P20333 23-257, limits assumed)
T1 construct: construct not described; also called human TNFR2 protein
T1 sequence (looked up): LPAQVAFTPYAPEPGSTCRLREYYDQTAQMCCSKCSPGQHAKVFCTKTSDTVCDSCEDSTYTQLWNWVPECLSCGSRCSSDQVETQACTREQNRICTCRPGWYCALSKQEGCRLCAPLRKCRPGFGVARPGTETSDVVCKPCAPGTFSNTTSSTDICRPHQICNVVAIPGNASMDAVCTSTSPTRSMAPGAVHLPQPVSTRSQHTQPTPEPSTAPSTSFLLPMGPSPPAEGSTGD
Assay: competition ELISA, competitor human TNFα-Biotin; AUC against 224-WT
Would you kindly list % Relative activity (WT antibody/test antibody) for each of these binders?
# number only, unit % dropped from output

**Query** Indicate the recorded % Relative activity (WT antibody/test antibody) value for this binder: 224-Hu6 (antibody, V domains shown, Humanized form of #224; also called VH8 + VL7) VH: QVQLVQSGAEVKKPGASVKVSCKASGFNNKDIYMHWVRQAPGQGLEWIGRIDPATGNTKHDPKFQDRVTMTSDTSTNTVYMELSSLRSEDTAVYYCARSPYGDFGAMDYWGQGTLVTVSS VL: DIQMTQSPSSLSASVGDRVTITCTASSSVSSNYLHWYQQKPGSSPKLWIYSTSNLPSGVPSRFSGSGSGTDFTLTISSLQPEDFATYYCHQYHRSPWTFGQGTKVEIK
**Result** 100

**Query** Indicate the recorded % Relative activity (WT antibody/test antibody) value for this binder: 224-Hu3 (antibody, V domains shown, Humanized form of #224; also called VH9 + VL8) VH: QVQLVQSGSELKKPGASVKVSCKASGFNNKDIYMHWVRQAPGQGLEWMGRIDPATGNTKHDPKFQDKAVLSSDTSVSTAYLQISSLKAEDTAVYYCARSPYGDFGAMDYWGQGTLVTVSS VL: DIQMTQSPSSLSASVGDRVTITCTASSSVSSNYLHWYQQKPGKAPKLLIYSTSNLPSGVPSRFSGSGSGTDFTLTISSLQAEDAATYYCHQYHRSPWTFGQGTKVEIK
**Result** 98.2

**Query** Indicate the recorded % Relative activity (WT antibody/test antibody) value for this binder: 224-Hu4 (antibody, V domains shown, Humanized form of #224; also called VH9 + VL6) VH: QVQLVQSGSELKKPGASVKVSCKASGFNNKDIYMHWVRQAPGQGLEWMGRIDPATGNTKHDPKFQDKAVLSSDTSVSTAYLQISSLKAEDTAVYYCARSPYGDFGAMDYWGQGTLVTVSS VL: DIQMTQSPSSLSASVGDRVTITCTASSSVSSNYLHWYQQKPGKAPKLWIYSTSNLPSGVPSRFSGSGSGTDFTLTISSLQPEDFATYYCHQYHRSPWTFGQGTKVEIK
**Result** 100

**Query** Indicate the recorded % Relative activity (WT antibody/test antibody) value for this binder: 224-Hu5 (antibody, V domains shown, Humanized form of #224; also called VH9 + VL9) VH: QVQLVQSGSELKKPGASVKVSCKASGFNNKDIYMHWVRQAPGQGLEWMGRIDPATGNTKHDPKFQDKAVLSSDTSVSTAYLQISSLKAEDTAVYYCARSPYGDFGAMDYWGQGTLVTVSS VL: DIQMTQSPSSLSASVGDRVTITCTASSSVSSNYLHWYQQKPGKAPKLLIYSTSNLPSGVPSRFSGSGSGTDYSLTISSLQPEDFATYYCHQYHRSPWTFGQGTKVEIK
**Result** 97.2

**Query** Indicate the recorded % Relative activity (WT antibody/test antibody) value for this binder: 224-Hu2 (antibody, V domains shown, Humanized form of #224; also called VH9 + VL7) VH: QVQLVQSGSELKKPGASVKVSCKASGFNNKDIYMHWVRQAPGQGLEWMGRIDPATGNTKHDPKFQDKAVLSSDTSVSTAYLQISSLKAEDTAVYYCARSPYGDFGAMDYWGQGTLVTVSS VL: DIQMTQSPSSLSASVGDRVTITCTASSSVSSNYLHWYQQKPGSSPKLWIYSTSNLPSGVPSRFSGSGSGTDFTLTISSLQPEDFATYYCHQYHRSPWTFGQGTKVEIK
**Result** 102

**Query** Indicate the recorded % Relative activity (WT antibody/test antibody) value for this binder: 224-Hu1 (antibody, V domains shown, Humanized form of #224; also called VH8 + VL6) VH: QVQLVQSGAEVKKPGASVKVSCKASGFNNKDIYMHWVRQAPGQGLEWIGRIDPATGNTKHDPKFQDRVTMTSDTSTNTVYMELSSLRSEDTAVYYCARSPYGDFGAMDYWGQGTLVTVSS VL: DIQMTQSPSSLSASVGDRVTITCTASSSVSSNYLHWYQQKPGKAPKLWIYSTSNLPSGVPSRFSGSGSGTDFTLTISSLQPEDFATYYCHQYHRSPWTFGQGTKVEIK
**Result** 98.8

**Query** Indicate the recorded % Relative activity (WT antibody/test antibody) value for this binder: 224-Hu7 (antibody, V domains shown, Humanized form of #224; also called VH9 + VL10) VH: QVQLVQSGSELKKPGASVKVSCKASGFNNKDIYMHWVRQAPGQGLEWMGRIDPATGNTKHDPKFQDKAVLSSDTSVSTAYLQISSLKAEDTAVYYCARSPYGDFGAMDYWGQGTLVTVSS VL: DIQMTQSPSSLSASVGDRVTITCTASSSVSSNYLHWYQQKPGKAPKLLIYSTSNLPSGVPSRFSGSGSGTDFTLTISSLQPEDFATYYCHQYHRSPWTFGQGTKVEIK
**Result** 100
